target-of-assay: T1, huNav1.7α(R277Q) + β1-β2-β3 (human)
T1 construct: polyprotein as encoded; the entry already carries R277Q; also called huNav1.7(R277Q)-beta1-beta2-beta3
assay-text: binding FACS, CHO FlpIn cells
Recorded measurements of pEC50, one per entry
Give only the number. pEC50 is defined as minus log10 of concentration in molar units.

| binder | property-label | data-value |
| --- | --- | --- |
| F0103265B04 (VHH, entry includes the FLAG-HIS6 tag; also called F0103265B04 (parental)-FLAG-HIS6) VHH: EVQLVESGGGLVQPGGSLRLSCAAPSFIFSNNYMEWYRQAPGKQRDWVARITGRGNTNYLDSVKGRFTISRDDAKNTVYLEIDSLKPEDTAVYYCSALWYGGRAWGKGTLVTVSS | pEC50 | 8.15 |
| F0103275B05 (VHH, entry includes the FLAG-HIS6 tag; also called F0103275B05 (parental)-FLAG-HIS6) VHH: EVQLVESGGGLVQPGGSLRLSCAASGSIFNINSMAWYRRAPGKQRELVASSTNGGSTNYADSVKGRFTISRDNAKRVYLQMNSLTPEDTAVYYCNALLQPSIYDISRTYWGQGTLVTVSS | pEC50 | 7.60 |
| F010301080 (VHH) VHH: EVQLVESGGGLVQPGGSLRLSCAASGMLFNANTQGWYRQAPGKQRELVAFIFWGGYVTYNDSVKGRFTISRDNAKRTMYLQMNSLKPEDSAIYYCSLSRYLGQGTLVTVSS | pEC50 | 8.49 |
| F0103464B09 (VHH, entry includes the FLAG-HIS6 tag; also called F0103464B09 (parental)-FLAG-HIS6; F103464B09) VHH: EVQLVESGGGLVQPGGSLRLSCATTSRAFIRDVFTGWYRRVPGKERELVARIYNGGNTNYADFAKGRFSISRDNAKKMVTLRMSNLKPEDTGVYYCLFSGTINTGREYRSGDYWGQGTLVTVSS | pEC50 | 8.59 |

Then there is this binder:
Look up pEC50 for this binder: F0103362B08 (VHH, entry includes the FLAG-HIS6 tag; also called F0103362B08 (parental)-FLAG-HIS6) VHH: EVQLVESGGGLVQAGGSLRLSCAASVRPFSTSAMGWFRQAPEKEREAVAGILWNGIVTYYADSVKGRFTISRDNAKNEVYLQMNKLKPEDTAVYYCALDRDYGGRSFSAYEYEYWGQGTLVTVSS
7.47
